System: U2OS
Test: cell viability relative to DMSO; higher = less toxic
Settings: 72 h; 10 nM

[
  {
    "Line Notation": "CCc1nc2ccc(Cl)cn2c1C(=O)NCc1ccc(N2CCC(c3ccc(OC(F)(F)F)cc3)CC2)cc1",
    "Assay System": "U2OS",
    "cell viability, %": 101
  },
  {
    "Line Notation": "Oc1ccc2c3c1O[C@H]1c4c(c5ccccc5n4Cc4ccccc4)C[C@@]4(O)[C@@H](C2)N(CC2CC2)CC[C@]314",
    "Assay System": "U2OS",
    "cell viability, %": 102
  },
  {
    "Line Notation": "CSc1nc(NC2CCCC2)c([N+](=O)[O-])c(NC2CCCC2)n1",
    "Assay System": "U2OS",
    "cell viability, %": 103
  },
  {
    "Line Notation": "C=C1/C(=C\\C=C2/CCC[C@]3(C)[C@@H]([C@H](C)/C=C/[C@H](C)C(C)C)CC[C@@H]23)C[C@@H](O)C[C@@H]1O",
    "Assay System": "U2OS",
    "cell viability, %": 102
  },
  {
    "Line Notation": "Cc1nnsc1C(=O)Nc1ccc(-n2nc(C(F)(F)F)cc2C(F)(F)F)cc1",
    "Assay System": "U2OS",
    "cell viability, %": 97.9
  },
  {
    "Line Notation": "c1ccc2c(c1)OC[C@H](CNCCCOc1ccc3c(c1)OCO3)O2",
    "Assay System": "U2OS",
    "cell viability, %": 99.2
  },
  {
    "Line Notation": "CC(=O)NCCC(=O)N[C@@H](Cc1c[nH]cn1)C(=O)O",
    "Assay System": "U2OS",
    "cell viability, %": 101
  },
  {
    "Line Notation": "COc1ccccc1NC(=O)OCC1CCN(C(=O)OC(C)(C)C)CC1",
    "Assay System": "U2OS",
    "cell viability, %": 99
  }
]
